I'd appreciate it if you could supply Mean Papp A − B (10^−6 cm/s) values for the items below.
System: Caco-2 cells
run.description: Caco-2 bidirectional permeability (absorption & efflux)
study.conditions: Example 47

Q: Hello, please tell me recorded Mean Papp A − B (10^−6 cm/s) for this one: CCCS(=O)(=O)Nc1cccc(Cc2c(CN3CCNCC3)c3cc(Cl)c(OC(=O)N(C)C)cc3oc2=O)c1F [Compound 167]
Result: 0.845 10^−6 cm/s

Q: Hello, please tell me recorded Mean Papp A − B (10^−6 cm/s) for this one: CNS(=O)(=O)Nc1cccc(Cc2c(CN3CCNCC3)c3cc(F)c(OC(=O)N(C)C)cc3oc2=O)c1F [Compound 134]
Result: 3.99 10^−6 cm/s

Q: Hello, please tell me recorded Mean Papp A − B (10^−6 cm/s) for this one: CNS(=O)(=O)Nc1cccc(Cc2c(CN(C)C)c3cc(F)c(OC(=O)N(C)C)cc3oc2=O)c1F [Compound 25]
Result: 4.39 10^−6 cm/s

Q: Hello, please tell me recorded Mean Papp A − B (10^−6 cm/s) for this one: CCS(=O)(=O)Nc1cccc(Cc2c(CN(C)C)c3ccc(OC(=O)N(C)C)cc3oc2=O)c1F [Compound 120]
Result: 21.9 10^−6 cm/s

Q: Hello, please tell me recorded Mean Papp A − B (10^−6 cm/s) for this one: CNS(=O)(=O)Nc1nccc(Cc2c(CN(C)C)c3ccc(OC(=O)N(C)C)cc3oc2=O)c1F [Compound 124]
Result: 3.51 10^−6 cm/s

Q: Hello, please tell me recorded Mean Papp A − B (10^−6 cm/s) for this one: CNS(=O)(=O)Nc1cccc(Cc2c(CN(C)C)c3ccc(OC(=O)N(C)C)cc3oc2=O)c1F [Compound 9]
Result: 16.4 10^−6 cm/s

###

run.description: Hepatocyte stability, beagle dog
Assay type: in vitro ADME
study.conditions: beagle, dog, hepatocytes, 0.5 million cells/ml, read-out: CLint (L/hr/kg) (converted)
Structures can show the parent of a compound that is named as a salt.
Please note: Met applies when CLint scaled at 2 μM is 4 L/h/kg or greater, and Not met applies otherwise.

Q: Determine whether measured CLint scaled at 2 μM meets or exceeds 4 L/h/kg for CNS(=O)(=O)Nc1cccc(Cc2c(CN(C)C)c3ccc(OC(=O)N(C)C)cc3oc2=O)c1Cl [Compound 274]
Result: Not met

Q: Determine whether measured CLint scaled at 2 μM meets or exceeds 4 L/h/kg for CCN(C)Cc1c(Cc2cccc(NS(=O)(=O)NC)c2Cl)c(=O)oc2cc(OC(=O)N(C)C)ccc12 [Compound 245]
Result: Met

Q: Determine whether measured CLint scaled at 2 μM meets or exceeds 4 L/h/kg for CNS(=O)(=O)Nc1cccc(Cc2c(CN3CCNCC3)c3ccc(OC(=O)N(C)C)cc3oc2=O)c1Cl [Compound 246, hydrochloride]
Result: Not met

Q: Determine whether measured CLint scaled at 2 μM meets or exceeds 4 L/h/kg for CNS(=O)(=O)Nc1cccc(Cc2c(CN3CCNCC3)c3cc(Cl)c(OC(=O)N(C)C)cc3oc2=O)c1Cl [Compound 256, hydrochloride]
Result: Not met

Q: Determine whether measured CLint scaled at 2 μM meets or exceeds 4 L/h/kg for CCN(C)Cc1c(Cc2cccc(NS(=O)(=O)NC)c2F)c(=O)oc2cc(OC(=O)N(C)C)c(F)cc12 [Compound 238]
Result: Met

###

tested.target: CYP3A4 (Homo sapiens, UniProt P08684)
Sequence (P08684 whole entry): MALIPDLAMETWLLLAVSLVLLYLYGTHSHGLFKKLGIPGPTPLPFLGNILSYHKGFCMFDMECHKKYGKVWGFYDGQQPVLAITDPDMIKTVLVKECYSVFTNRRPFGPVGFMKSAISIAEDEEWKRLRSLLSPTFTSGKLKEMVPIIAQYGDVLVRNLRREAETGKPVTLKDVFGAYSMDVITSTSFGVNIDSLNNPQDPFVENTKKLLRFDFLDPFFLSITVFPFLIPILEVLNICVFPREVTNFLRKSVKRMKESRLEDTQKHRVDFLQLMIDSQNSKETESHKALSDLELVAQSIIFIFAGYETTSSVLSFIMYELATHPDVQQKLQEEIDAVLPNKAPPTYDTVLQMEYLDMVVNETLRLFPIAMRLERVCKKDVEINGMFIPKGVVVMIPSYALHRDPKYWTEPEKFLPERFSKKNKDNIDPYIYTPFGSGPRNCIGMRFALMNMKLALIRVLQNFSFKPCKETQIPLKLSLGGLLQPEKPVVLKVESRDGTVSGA
run.description: CYP450 panel inhibition in human liver microsomes, 3A4 (midazolam / testosterone)
study.conditions: 10 μM, substrate midazolam
measured.parameter: CYP-3A4 (Midazolam) mean percentage CYP inhibition (%)
# output: bare number, implied unit %

Q: Hello, please tell me recorded CYP-3A4 (Midazolam) mean percentage CYP inhibition for this one: CCS(=O)(=O)Nc1cccc(Cc2c(CN(C)C)c3ccc(OC(=O)N(C)C)cc3oc2=O)c1F
Result: 11.4

Q: Hello, please tell me recorded CYP-3A4 (Midazolam) mean percentage CYP inhibition for this one: CCCS(=O)(=O)Nc1cccc(Cc2c(CN3CCNCC3)c3cc(Cl)c(OC(=O)N(C)C)cc3oc2=O)c1F
Result: 54.8

Q: Hello, please tell me recorded CYP-3A4 (Midazolam) mean percentage CYP inhibition for this one: CCN(C)Cc1c(Cc2cccc(NS(=O)(=O)NC)c2Cl)c(=O)oc2cc(OC(=O)N(C)C)ccc12
Result: 42.3

Q: Hello, please tell me recorded CYP-3A4 (Midazolam) mean percentage CYP inhibition for this one: CNS(=O)(=O)Nc1cccc(Cc2c(CN(C)C)c3ccc(OC(=O)N(C)C)cc3oc2=O)c1Cl
Result: 20.1

Q: Hello, please tell me recorded CYP-3A4 (Midazolam) mean percentage CYP inhibition for this one: CNS(=O)(=O)Nc1cccc(Cc2c(CN(C)C)c3ccc(OC(=O)N(C)C)cc3oc2=O)c1F
Result: 9.6

Q: Hello, please tell me recorded CYP-3A4 (Midazolam) mean percentage CYP inhibition for this one: CNS(=O)(=O)Nc1cccc(Cc2c(CN(C)C)c3cc(F)c(OC(=O)N(C)C)cc3oc2=O)c1F
Result: 48.5

Q: Hello, please tell me recorded CYP-3A4 (Midazolam) mean percentage CYP inhibition for this one: CNS(=O)(=O)Nc1cccc(Cc2c(CN3CCNCC3)c3cc(F)c(OC(=O)N(C)C)cc3oc2=O)c1F
Result: 44.5

Q: Hello, please tell me recorded CYP-3A4 (Midazolam) mean percentage CYP inhibition for this one: CNS(=O)(=O)Nc1nccc(Cc2c(CN(C)C)c3ccc(OC(=O)N(C)C)cc3oc2=O)c1F
Result: 63.2

###

run.description: Plasma stability, beagle dog plasma (K2EDTA)
Type: in vitro ADME
study.conditions: beagle, dog, plasma, pH 7.4
measured.parameter: half-life at 2 μM (h)
# output: bare number, implied unit h

Q: Hello, please tell me recorded half-life at 2 μM for this one: CC(C)[N+](C)(CCOC(=O)C1c2ccccc2Oc2ccccc21)C(C)C [Propantheline, reference compound]
Result: 4.87

###

System: human hepatocytes
run.description: Hepatocyte stability, human
Type: in vitro ADME
study.conditions: 2 μM, 0.5 million cells/ml, 120 min
measured.parameter: T1/2 (h)
# output: bare number, implied unit h

Q: Hello, please tell me recorded T1/2 for this one: CCCS(=O)(=O)Nc1cccc(Cc2c(CN3CCNCC3)c3cc(Cl)c(OC(=O)N(C)C)cc3oc2=O)c1F [Compound 167]
Result: 2.23

Q: Hello, please tell me recorded T1/2 for this one: CNS(=O)(=O)Nc1cccc(Cc2c(CN(C)C)c3ccc(OC(=O)N(C)C)cc3oc2=O)c1F [Compound 9]
Result: 1.93

Q: Hello, please tell me recorded T1/2 for this one: CNS(=O)(=O)Nc1cccc(Cc2c(CN3CCNCC3)c3cc(F)c(OC(=O)N(C)C)cc3oc2=O)c1F [Compound 134]
Result: 25.35

Q: Hello, please tell me recorded T1/2 for this one: CCS(=O)(=O)Nc1cccc(Cc2c(CN(C)C)c3ccc(OC(=O)N(C)C)cc3oc2=O)c1F [Compound 120]
Result: 1.85

Q: Hello, please tell me recorded T1/2 for this one: CNS(=O)(=O)Nc1nccc(Cc2c(CN(C)C)c3ccc(OC(=O)N(C)C)cc3oc2=O)c1F [Compound 124]
Result: 3.93

###

tested.target: CYP3A4 (Homo sapiens)
run.description: CYP450 panel inhibition in human liver microsomes, 3A4 (midazolam / testosterone)
study.conditions: 10 μM, substrate testosterone
Counter-ions that a name gives are not always drawn.
I'd appreciate it if you could supply CYP-3A4 (Testosterone) mean percentage CYP inhibition values for the items below.
# output: bare number, implied unit %

Q: Hello, please tell me recorded CYP-3A4 (Testosterone) mean percentage CYP inhibition for this one: CNS(=O)(=O)Nc1cccc(Cc2c(CN(C)C)c3cc(F)c(OC(=O)N(C)C)cc3oc2=O)c1F
Result: 47.2

Q: Hello, please tell me recorded CYP-3A4 (Testosterone) mean percentage CYP inhibition for this one: CNS(=O)(=O)Nc1cccc(Cc2c(CN3CCNCC3)c3cc(F)c(OC(=O)N(C)C)cc3oc2=O)c1F
Result: 52.6

Q: Hello, please tell me recorded CYP-3A4 (Testosterone) mean percentage CYP inhibition for this one: CCN(C)Cc1c(Cc2cccc(NS(=O)(=O)NC)c2Cl)c(=O)oc2cc(OC(=O)N(C)C)ccc12
Result: 72.8

Q: Hello, please tell me recorded CYP-3A4 (Testosterone) mean percentage CYP inhibition for this one: CCS(=O)(=O)Nc1cccc(Cc2c(CN3CCNCC3)c3cc(Cl)c(OC(=O)N(C)C)cc3oc2=O)c1Cl [Compound 257, hydrochloride]
Result: 66.0

Q: Hello, please tell me recorded CYP-3A4 (Testosterone) mean percentage CYP inhibition for this one: CNS(=O)(=O)Nc1cccc(Cc2c(CN(C)C)c3ccc(OC(=O)N(C)C)cc3oc2=O)c1Cl
Result: 50.4

Q: Hello, please tell me recorded CYP-3A4 (Testosterone) mean percentage CYP inhibition for this one: CNS(=O)(=O)Nc1nccc(Cc2c(CN(C)C)c3ccc(OC(=O)N(C)C)cc3oc2=O)c1F
Result: 62.6

Q: Hello, please tell me recorded CYP-3A4 (Testosterone) mean percentage CYP inhibition for this one: CNS(=O)(=O)Nc1cccc(Cc2c(CN3CCNCC3)c3ccc(OC(=O)N(C)C)cc3oc2=O)c1Cl [Compound 246, hydrochloride]
Result: 24.6

Q: Hello, please tell me recorded CYP-3A4 (Testosterone) mean percentage CYP inhibition for this one: CNS(=O)(=O)Nc1cccc(Cc2c(CN3CCNCC3)c3cc(Cl)c(OC(=O)N(C)C)cc3oc2=O)c1Cl [Compound 256, hydrochloride]
Result: 69.2

Q: Hello, please tell me recorded CYP-3A4 (Testosterone) mean percentage CYP inhibition for this one: CCCS(=O)(=O)Nc1cccc(Cc2c(CN3CCNCC3)c3cc(Cl)c(OC(=O)N(C)C)cc3oc2=O)c1F
Result: 51.2

Q: Hello, please tell me recorded CYP-3A4 (Testosterone) mean percentage CYP inhibition for this one: CCS(=O)(=O)Nc1cccc(Cc2c(CN(C)C)c3ccc(OC(=O)N(C)C)cc3oc2=O)c1F
Result: 12.6

Q: Hello, please tell me recorded CYP-3A4 (Testosterone) mean percentage CYP inhibition for this one: CNS(=O)(=O)Nc1cccc(Cc2c(CN(C)C)c3ccc(OC(=O)N(C)C)cc3oc2=O)c1F
Result: 30.9
